Experiment: BET inhibitor-based combinations targeting novel dependencies in MECOM-rearranged (r) AML: UCSD-AML1 cell line (AID 2202235); further: nearly all actives have a fitted effect of over 40% in size
Conditions: UCSD-AML1 AML cells viability, CellTiter-Glo, 48 h; series mostly up to 46 µM
Records with an inconclusive call do not appear. Activity calls are given as the source filed them. The call rests on the fitted dose curve; in most records, active means well fitted inhibition curve with a large enough effect; inconclusive means small, poorly fitted or top-dose-only effect; inactive means no such curve, though single readings can be large or run the other way.
Outcome field: choose from active, inactive

Illustrative cases are given below, each with its answer.
Query: recorded result category for CCCC(CCC)C(=O)O in this test
inactive

What outcome does the record of this test show for CC[C@@](C)(Nc1ccnc(-c2c[nH]c3ncccc23)n1)C(=O)NCC(F)(F)F ?
active

Returns: the outcome recorded for NCC1CCC(C(=O)O)CC1 (centres undefined) in this assay.
inactive

Identify the outcome logged in this assay for the compound shown: Cc1cc(O)c(-c2ccc([C@@H](C)CN(C)C)cc2)c2c1[nH]c(=O)c1sccc12
active

Entry CC[C@H](NC(C)C)[C@H](O)c1ccc(O)c2[nH]c(=O)ccc12 : call = ?
inactive

Others:
Dear all, I need the recorded test outcome for NC(=O)c1cnc(-c2ccc(C3(N)CCC3)cc2)c(-c2ccccc2)c1 , thank you.
active

So what was the verdict on C/C=C/C(=O)N(CC)c1ccccc1C in this test?
inactive

Look up the recorded call for Clc1ccc2c(N3CCN(CCCN4CCN(c5ccnc6cc(Cl)ccc56)CC4)CC3)ccnc2c1 in this test.
inactive

Which result was noted for this compound in the test: OCCN(CCO)c1nc(N2CCCCC2)c2nc(N(CCO)CCO)nc(N3CCCCC3)c2n1
inactive

###

Assay: BET inhibitor-based combinations targeting novel dependencies in MECOM-rearranged (r) AML: MV-4-11 cell line (AID 2202233); further: nearly all actives have a fitted effect of over 45% in size
Details: MV-4-11 AML viability, CellTiter-Glo luminescence, 48 h; series mostly up to 46 µM
Results filed as inconclusive are left out. Active and inactive are the calls of the source. The call rests on the fitted dose curve; in most records, active means well fitted inhibition curve with a large enough effect; inconclusive means small, poorly fitted or top-dose-only effect; inactive means no such curve, though single readings can be large or run the other way.
Write down the outcome that applies. Available outcomes: active, inactive

Write down the call the test reported for this compound. Item: CS(=O)(=O)Oc1ccc2c(NC(N)=O)c(C(=O)c3ccc(Cl)cc3Cl)oc2c1
inactive

Continuing:
Please indicate how the test categorized O=C(O)c1ccc(Nc2ncc3c(n2)-c2ccc(Cl)cc2C(c2c(F)cccc2F)=NC3)cc1 .
active

Could you please tell me the result logged for O=C(Nc1ccccc1-c1cn2c(CN3CCNCC3)csc2n1)c1cnc2ccccc2n1 in this assay?
active

###

Assay: BET inhibitor-based combinations targeting novel dependencies in MECOM-rearranged (r) AML: HNT-34 cell line (AID 2202234); further: nearly all actives have a fitted effect of over 35% in size; further: potency means the concentration at half of the fitted maximal effect
Conditions: HNT-34 AML viability, CellTiter-Glo luminescence, 48 h; series mostly up to 46 µM
Records with an inconclusive call do not appear. Calls of active or inactive are those of the source. The call rests on the fitted dose curve; in most records, active means well fitted inhibition curve with a large enough effect; inconclusive means small, poorly fitted or top-dose-only effect; inactive means no such curve, though single readings can be large or run the other way.
Parameter: Potency

Recall and state the measured Potency for CCOC(=O)C1=C[C@@H](OC(CC)CC)[C@H](NC(C)=O)[C@@H](N)C1 .
inactive

Give recorded Potency. OCCN1CCN(CCCN2c3ccccc3Sc3ccc(C(F)(F)F)cc32)CC1
18600 nM (active)

Indicate the recorded Potency value for this compound: COc1cc(N2CCC(N)CC2)ccc1Nc1ncc(Cl)c(-c2c[nH]c3ccccc23)n1
1320 nM (active)

Report Potency for COC(=O)N1CC2(CC2)C[C@H](C(=O)NO)[C@H]1C(=O)N1CCN(c2ccccc2)CC1
inactive

Please report the measured Potency for Cc1cc(C(=O)Nc2cc(Oc3ccc4nc(NC(=O)C5CC5)cn4n3)ccc2C)n(C)n1
1320 nM (active)

More entries:
Recall and state the measured Potency for CNC(=O)c1cc(Oc2ccc(NC(=O)Nc3cc(C(C)(C)C)nn3-c3ccc4ncccc4c3)c(F)c2)ccn1 .
148 nM (active)

Look up and state reported Potency for CN(C)c1cccc(-c2c3c(=O)n(-c4ccccc4Cl)[nH]c3cc(=O)n2C)c1
inactive

Name the recorded Potency of the compound listed here: CCOC(=O)C1=C(O)C(=O)N(Cc2ccccc2)C1
inactive

Output Potency of CN1CC[C@@H](c2c(O)cc(O)c3c(=O)cc(-c4ccccc4Cl)oc23)[C@@H](O)C1
468 nM (active)

Provide Potency value for the following compound: CC[C@@H](C)Nc1cc(C(=O)NC2CC3CCC(C2)N3c2ccc(C(=O)C3CC3)cn2)c(C)cc1C(N)=O (stereo partly specified)
148 nM (active)

Supply Potency value. Item: O=C1NC(=O)C(c2cnc3ccccn23)=C1c1cn2c3c(cc(F)cc13)CN(C(=O)N1CCCCC1)CC2
66.1 nM (active)

Given the compound CC(C)[C@H](C(=O)Nc1ccc(C(=O)NO)cc1)c1ccccc1 , write its reported Potency.
833 nM (active)

Identify Potency associated with the compound CCc1ccc(OCc2ccccc2C(=O)Nc2ccc3nc(C)cc(N)c3c2)cc1
4170 nM (active)

Indicate its recorded Potency; the compound in question is CC(C)(Cc1ccc2ccccc2c1)NC[C@@H](O)COc1cccc(Cl)c1C#N
16600 nM (active)

Kindly indicate its recorded Potency. Item: OC[C@H]1O[C@@H](Oc2cc(O)cc(/C=C/c3ccc(O)cc3)c2)[C@H](O)[C@@H](O)[C@@H]1O
inactive

Look up Potency of N[C@@H]1CONC1=O and report it.
inactive

Let me know recorded Potency for Cc1cnc(C(=O)O)c[n+]1[O-] , thanks.
inactive

Note Potency for the compound shown: CC(C)c1c2cc(-c3ccnc(NC4CCC(NC5CCOCC5)CC4)n3)ccc2nn1C (stereo unspecified)
235 nM (active)

Give reported Potency value for COc1cc2ncn(-c3cc(OCc4ccccc4S(C)(=O)=O)c(C#N)s3)c2cc1OC
inactive

Give the reported value of Potency for this record: NC1(c2ccc(-c3nc4ccn5c(=O)[nH]nc5c4cc3-c3ccccc3)cc2)CCC1
7420 nM (active)

Specify Potency for COc1ccc(C[C@@H](C)[C@@H](C)Cc2ccc(OC)c(OC)c2)cc1OC and stop.
inactive

###

Each entry below carries its reported Potency.
Biological target: Cellular tumor antigen p53 (Homo sapiens) (UniProt P04637)
Sequence (P04637 whole entry, looked up): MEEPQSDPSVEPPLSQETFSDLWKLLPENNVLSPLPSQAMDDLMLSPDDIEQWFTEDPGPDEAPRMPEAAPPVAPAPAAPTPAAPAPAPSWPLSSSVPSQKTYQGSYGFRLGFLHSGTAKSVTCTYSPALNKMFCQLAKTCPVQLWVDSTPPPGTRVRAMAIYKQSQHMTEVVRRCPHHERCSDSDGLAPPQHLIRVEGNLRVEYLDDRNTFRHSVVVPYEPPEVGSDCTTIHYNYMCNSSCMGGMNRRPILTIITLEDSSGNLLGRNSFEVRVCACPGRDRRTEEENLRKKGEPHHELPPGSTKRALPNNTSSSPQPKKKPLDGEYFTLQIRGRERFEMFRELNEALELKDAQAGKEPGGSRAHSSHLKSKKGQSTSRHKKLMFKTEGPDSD
Experiment: Primary qHTS for small molecule compounds that upregulate eGFP-tagged delta133p53alpha (in N-terminal) cells. (AID 2060322); further: potency means the concentration at half of the fitted maximal effect; nearly all actives have a fitted effect of over 75% in size
Conditions: NCI-H358 eGFP-delta133p53alpha fluorescence, 24 h
From the text: Assay Development and Screening Technology National Center for Advancing Translational Sciences (NCATS), National Institute of Health (NIH), Rockville, Maryland Cellular senescence (CS) is one of the hallmarks of aging and age-related diseases. […] Here we report the development and validation of a cell-based quantitative high throughput screening (qHTS) assay in 1,536-well format. […]
Records with an inconclusive call do not appear. Calls of active or inactive are those of the source. The call rests on the fitted dose curve; in most records, active means well fitted activation curve with a large enough effect; inconclusive means small, poorly fitted or top-dose-only effect; inactive means no such curve, though single readings can be large or run the other way.

Indicate its recorded Potency; the molecule in question is CN(CC(=O)N(Cc1ccc(C2CCCCC2)cc1)c1ccc(C(=O)O)cc1)S(=O)(=O)c1c(F)c(F)c(F)c(F)c1F
6.75 µM (active)

Item COc1cc(-c2cc(-c3cccc(O)c3)cnc2N)cc(OC)c1OC : provide Potency
16.9 µM (active)

Please list Potency recorded for the molecule CC(C)(C)Nc1nc2cc(Cl)c(Cl)cc2nc1S(C)(=O)=O
3.38 µM (active)

Assign Potency to the following record: Cc1c(CN2CCN(C(=O)C(C)O)CC2)sc2c(N3CCOCC3)nc(-c3cnc(N)nc3)nc12 (stereo not drawn)
12 µM (active)

---
Find the measured Potency of N#Cc1cnc2cnc(NCc3cccnc3)cc2c1Nc1ccc(F)c(Cl)c1 and report it.
2.69 µM (active)

Kindly indicate its recorded Potency. Item: CC(=O)O[C@H]1CC2C(COC(=O)CC(C)C)=CO[C@@H](OC(=O)CC(C)C)C2[C@]12CO2 (stereo partly drawn)
10.4 µM (active)

Give the measured Potency for O=C1C=CC2OC(c3ccccc3)C(O)C2O1 (stereo not drawn)
30.1 µM (active)

Given c1cc(-c2cnn3cc(-c4ccc(N5CCNCC5)cc4)cnc23)c2cccnc2c1 , respond with its Potency.
15.1 µM (active)

Kindly indicate its recorded Potency. Item: NC(=O)Nc1cc(-c2cccc(F)c2)sc1C(=O)NC1CCCNC1 (stereo not drawn)
19 µM (active)

Give Potency for the following molecule: CO[C@H]1/C=C/C=C/C=C/C[C@H](OC(=O)[C@@H](C)NC(=O)C2CCCCC2)[C@H](C)[C@@H](O)/C(C)=C/CCc2cc(O)cc(c2)NC(=O)C1
2.81 µM (active)

Name the recorded Potency of the item C[C@H](NCc1ccc(OCc2cccc(F)c2)cc1)C(N)=O in your answer.
24.3 µM (active)

Determine its reported Potency: NC(=O)c1ccccc1Nc1ccnc(Nc2cccc(O)c2)n1
30.1 µM (active)

Give recorded Potency. C=C1C(=O)O[C@H]2[C@@H]1CCC(C)=CCC[C@@]1(C)O[C@@H]21
19.3 µM (active)

###

Target: Retinal dehydrogenase 2 (Homo sapiens) (UniProt O94788)
Test: qHTS for Inhibitors of the Aldehyde Dehydrogenase Family (ALDH1A2) Confirmation screens (AID 2061314); further: nearly all actives have a fitted effect of over 65% in size
Settings: ALDH1A2 enzyme inhibition qHTS confirmation; series mostly up to 45.9 µM
Results filed as inconclusive are left out. Activity calls are given as the source filed them. Calls follow the shape of the dose curve; as a rule, active = well fitted inhibition curve with a large enough effect; inconclusive = small, poorly fitted or top-dose-only effect; inactive = no such curve, though single readings can be large or run the other way.
Your reply should match one of these outcome classes. active, inactive

Look over these answered cases.
Check the results log: what was the call for CC(C)(Cc1ccccc1)NCC(O)c1ccc(O)c(NS(C)(=O)=O)c1 (centres undefined) ?
inactive

Hello, I am checking results. What call was entered for Clc1cccc(-c2ccc(C3Nc4cccc5cccc(c45)N3)o2)c1 ?
active

# fetch the recorded call for COC(=O)[C@]1(Cc2ccc(O)c(CC=C(C)C)c2)OC(=O)C(O)=C1c1ccc(O)cc1 here
inactive

---
Please let me know the test result on file for CCN(CC)CCOc1ccc(/C(=C(\Cl)c2ccccc2)c2ccccc2)cc1 .
inactive
